target: Platelet-activating factor receptor (Canis lupus familiaris); assay: PAF-antagonist activity determined in dog platelets by PAF-binding assay
READOUT: log10 of IC50 (log10 of the value in nM)
Would you kindly interpret these values as log10 of IC50 expressed in nM?

Prompt: Hi! What's the reported log10 of IC50 for Cc1nnc2n1-c1sc(C#CCn3c(=O)c4cc(Cl)ccc4c4ccc(Cl)cc43)cc1C(c1ccccc1Cl)=NC2 on Platelet-activating factor receptor (Canis lupus familiaris)?
Response: 1.48

Prompt: Then what about the compound Cc1nnc2n1-c1sc(C#CCN3C(=O)c4cccc5cccc(c45)C3=O)cc1C(c1ccccc1Cl)=NC2 ?
Response: 1.08

Prompt: Then what about the compound Cc1nnc2n1-c1ccc(C#CCN3C(=O)CCc4ccccc43)cc1C(c1ccccc1F)=N[C@H]2C ?
Response: 0.78

Prompt: Then what about the compound Cc1nnc2n1-c1sc(I)cc1C(c1ccccc1Cl)=NC2C (centres undefined) ?
Response: 2.08

Prompt: Then what about the compound Cc1nnc2n1-c1sc(C#CCn3c(=O)[nH]c4ccccc43)cc1C(c1ccccc1Cl)=NC2 ?
Response: 0.95

Prompt: Then what about the compound Cc1nnc2n1-c1sc(C#CCn3c(=O)ccc4ccccc43)cc1C(c1ccccc1Cl)=NC2 ?
Response: 0.30

Prompt: Then what about the compound Cc1nnc2n1-c1sc(C#CCOc3cccnc3)cc1C(c1ccccc1Cl)=NC2 ?
Response: 0.60

Prompt: Then what about the compound Cc1nnc2n1-c1sc(C#CCn3c4c(c5ccccc53)CCCCC4)cc1C(c1ccccc1Cl)=NC2 ?
Response: 1.18

Prompt: Then what about the compound Cc1nnc2n1-c1sc(C#CCn3c(=O)n(C)c(=O)c4ccccc43)cc1C(c1ccccc1Cl)=NC2 ?
Response: -0.22

* * *

Kindly state IC50 for each of the entries shown.
molecular target: Platelet-activating factor receptor (Canis lupus familiaris); assay: PAF-antagonist activity determined in dog platelets by PAF-binding assay

Prompt: Hi! What's the reported IC50 for O=C1CCc2ccccc2N1CC#Cc1ccc2c(c1)C(c1ccc(Cl)cc1)=NCc1nnc(C(F)(F)F)n1-2 on Platelet-activating factor receptor (Canis lupus familiaris)?
Response: 1 µM

Prompt: Then what about the molecule C=C=Cn1c(=O)n(CC#Cc2cc3c(s2)-n2c(C)nnc2CN=C3c2ccccc2Cl)c2ccccc21 ?
Response: 0.006 µM

Prompt: Then what about the molecule O=C1CCc2ccccc2N1CC#Cc1ccc2c(c1)C(c1ccccc1F)=NCc1nnc(C(F)(F)F)n1-2 ?
Response: 0.2 µM

Prompt: Then what about the molecule Cc1nnc2n1-c1sc(C#CCN3C(=O)Cc4ccccc43)cc1C(c1ccccc1Cl)=NC2 ?
Response: 0.003 µM

* * *

target: Platelet-activating factor receptor (Canis lupus familiaris); assay: PAF-antagonist activity determined in dog platelets by PAF-binding assay
Kindly state IC50 for each of the entries shown.
Please respond with the number in nM and leave the unit unwritten.

Prompt: For the compound Cc1nnc2n1-c1ccc(C#CCOc3cccnc3)cc1C(c1ccccc1Cl)=NC2 , what IC50 is on record?
Response: 130

Prompt: Then what about the compound Cc1nnc2n1-c1sc(C#CCN3C(=O)CC(C)(C)c4ccccc43)cc1C(c1ccccc1Cl)=NC2 ?
Response: 12

Prompt: Then what about the compound Cc1nnc2nc(-c3ccccc3F)c3cc(C#CCN4C(=O)c5ccccc5C4=O)ccc3n12 ?
Response: 300

Prompt: Then what about the compound Cc1nnc2n1-c1sc(C#CCN3C(=O)C(=O)c4ccccc43)cc1C(c1ccccc1Cl)=NC2 ?
Response: 7

Prompt: Then what about the compound O=C1c2ccccc2C(=O)N1CC#Cc1ccc2c(c1)C(c1ccccc1F)=NCc1nncn1-2 ?
Response: 1000

Prompt: Then what about the compound Cc1nnc2n1-c1sc(C#CCC34CCCc5cccc(c53)NC4=O)cc1C(c1ccccc1Cl)=NC2 (centres undefined) ?
Response: 0.7

Prompt: Then what about the compound Cc1nnc2n1-c1sc(C#CCn3c(=O)n(C)c4ccccc43)cc1C(c1ccccc1Cl)=NC2 ?
Response: 0.3

Prompt: Then what about the compound Cc1nnc2n1-c1ccc(I)cc1C(c1ccccc1F)=NC2 ?
Response: 1000

Prompt: Then what about the compound Cc1nnc2n1-c1sc(C#CCn3c(=O)n(CCN(C)C)c4ccccc43)cc1C(c1ccccc1Cl)=NC2 ?
Response: 30

Prompt: Then what about the compound Cc1nnc2n1-c1ccc(C#CCN3C(=O)CCc4ccccc43)cc1C(c1ccccc1F)=NC2 ?
Response: 20

Prompt: Then what about the compound Cc1nnc2n1-c1sc(C#CCn3c(=O)n(CCN(C)C)c(=O)c4ccccc43)cc1C(c1ccccc1Cl)=NC2 ?
Response: 150

Prompt: Then what about the compound Cc1nnc2n1-c1sc(C#CCn3c4c(c5ccccc53)CCCC4)cc1C(c1ccccc1Cl)=NC2 ?
Response: 7

Prompt: Then what about the compound Cc1nnc2n1-c1sc(C#CCN3C(=O)Cn4ccc5c(Cl)ccc3c54)cc1C(c1ccccc1Cl)=NC2 ?
Response: 15

Prompt: Then what about the compound Cc1nnc2n1-c1sc(C#CCN3C(=O)CCc4cc(Cl)cc(Cl)c43)cc1C(c1ccccc1Cl)=NC2 ?
Response: 9

Prompt: Then what about the compound Cc1nnc2n1-c1sc(C#CCn3c(=O)c4ccccc4c4ccccc43)cc1C(c1ccccc1Cl)=NC2 ?
Response: 13

Prompt: Then what about the compound Cc1nnc2n1-c1sc(C#CCn3c(=O)c4ccccc4c4ccccc43)cc1C(c1ccccc1Cl)=NC2C (centres undefined) ?
Response: 250

Prompt: Then what about the compound Cc1nnc2n1-c1sc(C#CCn3c(=O)c4ccccc4c4ccccc43)cc1C(c1cc(O)ccc1Cl)=NC2 ?
Response: 15

Prompt: Then what about the compound Cc1nnc2n1-c1ccc(I)cc1C(c1ccccc1F)NC2 (centres undefined) ?
Response: 1000

Prompt: Then what about the compound Cc1nnc2n1-c1sc(C#CCN3C(=O)C4(C)CCCc5cccc3c54)cc1C(c1ccccc1Cl)=NC2 (centres undefined) ?
Response: 12

Prompt: Then what about the compound CCc1nnc2n1-c1ccc(C#CCN3C(=O)c4ccccc4C3=O)cc1C(c1ccccc1F)=NC2 ?
Response: 100

Prompt: Then what about the compound Cc1nnc2n1-c1sc(C#CCN3C(=O)CCc4ccccc43)cc1C(c1cc(O)ccc1Cl)=NC2 ?
Response: 80

Prompt: Then what about the compound Cc1nnc2n1-c1sc(C#CCN3C(=O)CCc4ccccc43)cc1C(c1ccccc1Cl)=NC2 ?
Response: 0.2

Prompt: Then what about the compound Cc1nnc2n1-c1sc(C#CCn3c4ccccc4c4ccccc43)cc1C(c1ccccc1Cl)=NC2 ?
Response: 120

Prompt: Then what about the compound Cc1nnc2n1-c1sc(C#CCn3c4c(c5cc(Cl)ccc53)CCCCC4)cc1C(c1ccccc1Cl)=NC2 ?
Response: 70

Origin of values: BindingDB's records for doi:10.1021/jm00107a048
